Catalogue of compounds with associated CC50 at 144 h
Assay: PHH natural infection assay, cytotoxicity (Cell Counting Kit-8)
Format: cell-based
Conditions: human, HBV-infected primary human hepatocytes, CCK8, end of treatment

Illustrative cases are given below, each with its answer.
O=C(N[C@H]1CC2(C1)C[C@H](c1nc3cc(Cl)ccc3o1)C2)c1ccc(S(=O)(=O)NC(=O)C2CC2)o1 (single isomer, unassigned)
> 100 µM
CN(C)S(=O)(=O)c1ccc(C(=O)NC2CC3(C2)CC(c2nc4cc(Cl)ccc4o2)C3)o1 (stereo not drawn)
> 10 µM
CCS(=N)(=O)Cc1ccc(C(=O)NC2CC3(C2)CC(c2nc4cc(Cl)ccc4o2)C3)o1 (stereo not drawn)
> 100 µM
NS(=O)(=O)NCc1ccc(C(=O)NC2CC3(C2)CC(c2nc4cc(Cl)ccc4o2)C3)o1 (stereo not drawn)
98.3 µM
O=C(NC1CC2(C1)CC(c1nc3cc(Cl)ccc3o1)C2)c1ccc(S(=O)(=O)NC(=O)C2CCCS(=O)(=O)C2)o1 (stereo not drawn)
> 10 µM

// below: CC50 at 144 h requested for another compound
Request: What does the record list as CC50 at 144 h for O=C(N[C@H]1CC2(C1)C[C@H](c1nc3cc(Cl)ccc3o1)C2)c1ccc(S(=O)(=O)NC(=O)C2CCOC2)o1 (stereo partly drawn) ?
Response: > 100 µM

###

Assay: PHH natural infection assay, cytotoxicity (Cell Counting Kit-8)
Type: cell-based
Settings: human, HBV-infected primary human hepatocytes, CCK8, end of treatment
ASSAY_ENDPOINT: CC50 at 144 h

Request: What does the record list as CC50 at 144 h for CC(C)CS(=O)(=O)c1ccc(C(=O)NC2CC3(C2)CC(c2nc4cc(Cl)ccc4o2)C3)o1 (stereo not shown) [Example 22] ?
Response: 75.6 µM

Request: Here is the next compound: O=C(NC1CC2(C1)CC(c1nc3cc(Cl)ccc3o1)C2)c1ccc(S(=O)(=O)NC(=O)C2CCCCC2)o1 (stereo not shown) [Example 82]
Response: 85.7 µM

Request: Here is the next compound: [H][C@]1(NC(=O)c2ccc([S@](=N)(=O)C3CC3)o2)C[C@]2(C1)C[C@]([H])(c1nc3cc(Cl)ccc3o1)C2 (stereo partly shown) [Example 53-c]
Response: 91.9 µM

Request: Here is the next compound: O=C(NC1CC2(C1)CC(c1nc3cc(Cl)cnc3o1)C2)c1ccc(S(=O)(=O)C2CC2)o1 (single isomer, unassigned) [Example 49-a]
Response: 81.1 µM

Request: Here is the next compound: O=C(NC1CC2(C1)CC(c1nc3cc(Cl)ccc3o1)C2)c1cc(C(F)(F)F)n[nH]1 (stereo not shown) [Example 12]
Response: 30.2 µM

Request: Here is the next compound: O=C(NC1CC2(C1)CC(c1nc3cc(Cl)ccc3o1)C2)c1cc(Br)co1 (stereo not shown) [Example 4]
Response: 56 µM

Request: Here is the next compound: CS(=N)(=O)c1ccc(C(=O)NC2CC3(C2)CC(c2nc4cc(Cl)ccc4o2)C3)o1 (single isomer, unassigned) [Example 52-a]
Response: > 100 µM

###

Catalogue of compounds with associated CC50 at 144 h
Assay: PHH natural infection assay, cytotoxicity (Cell Counting Kit-8)
Format: cell-based
Conditions: human, HBV-infected primary human hepatocytes, CCK8, end of treatment
Give a bare numeral; the unit µM is implied.

Illustrative cases are given below, each with its answer.
O=C(NC1CC2(C1)CC(c1nc3cc(Cl)ccc3o1)C2)c1ccc(S(=O)(=O)CC2CC2)o1 (centres unmarked)
89.2
NS(=O)(=O)c1ccc(C(=O)NC2CC3(C2)CC(c2nc4cc(Cl)ccc4o2)C3)o1 (centres unmarked) [Example 29]
94.2

Request: What does the record list as CC50 at 144 h for CS(=O)(=O)c1ccc(C(=O)NC2CC3(C2)CC(c2nc4cc(Cl)ccc4o2)C3)o1 (centres unmarked) ?
Response: 79

Request: Here is the next compound: CS(=N)(=O)c1ccc(C(=O)NC2CC3(C2)CC(c2nc4cc(Cl)ccc4o2)C3)o1 (centres unmarked) [Example 52]
Response: 72

Request: Here is the next compound: O=C(NC1CC2(C1)CC(c1nc3cc(Cl)ccc3o1)C2)c1ccc(S(=O)(=O)C2CC2)o1 (centres unmarked)
Response: 89.9

###

Assay: PHH natural infection assay, cytotoxicity (Cell Counting Kit-8)
Type: cell-based
Settings: human, HBV-infected primary human hepatocytes, CCK8, end of treatment
Procedure: Detailed procedures regarding primary human hepatocyte (PHH) HBV natural infection assay are described as below. […] HBsAg and HBeAg were detected using alphalisa method using their specific antibodies. For HBV DNA detection, HBV DNA Quantitative Fluorescence Diagnostic Kit (Sansure Biotech Inc.) was used following the manufacture's protocol. Cytotoxicity was determined using Cell Counting Kit-8 (CCK8, Dojindo Molecular Technologies, Inc.).
ASSAY_ENDPOINT: CC50 at 144 h (µM)
Give a bare numeral; the unit µM is implied.

Illustrative cases are given below, each with its answer.
O=C(NC1CC2(C1)CC(c1nc3cc(Cl)cnc3o1)C2)c1ccc(S(=O)(=O)C2CC2)o1 (stereo not shown) [Example 49]
84.5
N=S(=O)(CC1CC(F)(F)C1)c1ccc(C(=O)NC2CC3(C2)CC(c2nc4cc(Cl)ccc4o2)C3)o1 (stereo not shown) [Example 57]
81.9
O=C(NC1CC2(C1)CC(c1nc3cc(Cl)ccc3o1)C2)c1ccc(S(=O)(=O)C2COC2)o1 (stereo not shown) [Example 18]
72.1
O=C(NC1CC2(C1)CC(c1nc3cc(Cl)ccc3o1)C2)c1ccc([S+]([O-])CC2CC2)o1 (stereo not shown) [Example 19]
94.5
CC(C)(C)[S+]([O-])c1ccc(C(=O)NC2CC3(C2)CC(c2nc4cc(Cl)ccc4o2)C3)o1 (stereo not shown) [Example 38]
96.3
[H][C@]1(NC(=O)c2ccc(S(C)(=O)=O)o2)C[C@@]2(C1)C[C@]([H])(c1nc3cc(Cl)ccc3o1)C2 (single isomer, unassigned) [Example 15-a]
84
CC(C)CS(=N)(=O)c1ccc(C(=O)NC2CC3(C2)CC(c2nc4cc(Cl)ccc4o2)C3)o1 (stereo not shown) [Example 55]
83.3
O=C(NC1CC2(C1)CC(c1nc3cc(Cl)ccc3o1)C2)c1ccc([S+]([O-])C(F)(F)F)o1 (stereo not shown) [Example 42]
96.2

Request: What does the record list as CC50 at 144 h for N=S(=O)(CC1CC1)c1ccc(C(=O)NC2CC3(C2)CC(c2nc4cc(Cl)ccc4o2)C3)o1 (stereo not shown) [Example 54] ?
Response: 88.8

Request: Here is the next molecule: CC(C)C[S+]([O-])c1ccc(C(=O)NC2CC3(C2)CC(c2nc4cc(Cl)ccc4o2)C3)o1 (stereo not shown) [Example 21]
Response: 92.4

###

Tested on: HBeAg
Test: PHH HBV natural infection assay, HBeAg (alphalisa)
Assay type: cell-based
Settings: read-out: HbeAg IC50; HBV-infected primary human hepatocytes, supernatant, compound medium refreshed two times with 72-hour interval
Response field class: enum, chosen by comparing IC50 against low interval = under 0.6 µM, middle interval = from 0.6 µM up to 4 µM, high interval = 4 µM and over

Request: Field: class (IC50) — entry: O=C(NC1CC2(C1)CC(c1nc3cc(Cl)cnc3o1)C2)c1ccc(S(=O)(=O)C2CC2)o1 (single isomer, unassigned) [Example 49-a]
Response: high interval

Request: Here is the next compound: O=C(NC1CC2(C1)CC(c1nc3cc(Cl)ccc3o1)C2)c1ccc([S+]([O-])CC2CC2)o1 (single isomer, unassigned) [Example 19-d]
Response: middle interval

Request: Here is the next compound: N=S(=O)(CC1CC1)c1ccc(C(=O)NC2CC3(C2)CC(c2nc4cc(Cl)ccc4o2)C3)o1 (single isomer, unassigned) [Example 54-d]
Response: middle interval

Request: Here is the next compound: N=S(=O)(c1ccc(C(=O)NC2CC3(C2)CC(c2nc4cc(Cl)cnc4o2)C3)o1)C1CC1 (single isomer, unassigned) [Example 64-b]
Response: high interval

Request: Here is the next compound: O=C(NC1CC2(C1)CC(c1nc3cc(Cl)ccc3o1)C2)c1ccc([S+]([O-])CC2CC2)o1 (single isomer, unassigned) [Example 19-a]
Response: low interval

Request: Here is the next compound: N=S(=O)(c1ccc(C(=O)NC2CC3(C2)CC(c2nc4cc(Cl)ccc4o2)C3)o1)C1CC1 (single isomer, unassigned) [Example 53-b]
Response: high interval

###

Catalogue of compounds with associated CC50 at 144 h
Assay: PHH natural infection assay, cytotoxicity (Cell Counting Kit-8)
Assay type: cell-based
Settings: human, HBV-infected primary human hepatocytes, CCK8, end of treatment

Request: What does the record list as CC50 at 144 h for COCCOCC(=O)NS(=O)(=O)c1ccc(C(=O)N[C@H]2CC3(C2)C[C@H](c2nc4cc(Cl)ccc4o2)C3)o1 (single isomer, unassigned) [Example 78] ?
Response: > 100 µM

Request: Here is the next compound: CN1CC(CS(=O)(=O)c2ccc(C(=O)NC3CC4(C3)CC(c3nc5cc(Cl)ccc5o3)C4)o2)C1 (stereo not shown) [Example 25]
Response: > 10 µM

Request: Here is the next compound: NC(=O)c1ccc(C(=O)NC2CC3(C2)CC(c2nc4cc(Cl)ccc4o2)C3)o1 (stereo not shown) [Example 11]
Response: > 10 µM

Request: Here is the next compound: CS(=O)(=O)c1ccc(C(=O)NC2CC3(C2)CC(c2nc4cc(Cl)ccc4o2)C3)s1 (stereo not shown) [Example 45]
Response: > 100 µM

Request: Here is the next compound: CS(=O)(=O)c1ccc(C(=O)NC2CC3(C2)CC(c2nc4cc(Cl)cnc4o2)C3)o1 (stereo not shown) [Example 48]
Response: > 100 µM

Request: Here is the next compound: O=C(NC1CC2(C1)CC(c1nc3cc(Cl)ccc3o1)C2)c1ccc(S(=O)(=O)C(F)(F)F)o1 (stereo not shown) [Example 43]
Response: > 100 µM

Request: Here is the next compound: O=C(NC1CC2(C1)CC(c1nc3cc(Cl)ccc3o1)C2)c1ccc(S(=O)(=O)NC(=O)C2CCOCC2)o1 (stereo not shown) [Example 87]
Response: > 10 µM

Reference for the values: patent US20230286969A1
